Assignment: determine reported viability, T/C for the given compounds.
Test system: 324938-238-R-J1-PDC complex spheroid growth, % test/control;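 note: spheroids exposed to agents for seven days before viability read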
protocolText: Anticancer human tumor 324938-238-R-J1-PDC patient-derived bladder carcinoma cell line growth inhibition [AhR]
statedConditions: second compound 0.1 µM; first compound 3.16 µM; active compounds read low
Your answer should be a plain number; it is taken to be in %.

Challenge: Enter reported viability, T/C observed with 324938-238-R-J1-PDC complex spheroid growth, % test/control for COc1cccc2c1C(=O)c1c(O)c3c(c(O)c1C2=O)CC(O)(C(=O)CO)CC3OC1CC(N)C(O)C(C)O1 (stereo unspecified) + Cc1cncc(-c2nc(NCCc3c[nH]c4ccccc34)c3ncn(C(C)C)c3n2)c1
Response given: 0.76

Challenge: Enter reported viability, T/C observed with 324938-238-R-J1-PDC complex spheroid growth, % test/control for CC1(C)CCC(CN2CCN(c3ccc(C(=O)NS(=O)(=O)c4ccc(NCC5CCOCC5)c([N+](=O)[O-])c4)c(Oc4cnc5[nH]ccc5c4)c3)CC2)=C(c2ccc(Cl)cc2)C1 + Cc1cncc(-c2nc(NCCc3c[nH]c4ccccc34)c3ncn(C(C)C)c3n2)c1
Response given: 109

Challenge: Enter reported viability, T/C observed with 324938-238-R-J1-PDC complex spheroid growth, % test/control for CC(C)c1c(-c2ccccc2)nc2c(C#N)c[nH]n2c1=O + Cc1cncc(-c2nc(NCCc3c[nH]c4ccccc34)c3ncn(C(C)C)c3n2)c1
Response given: 69.6

Challenge: Enter reported viability, T/C observed with 324938-238-R-J1-PDC complex spheroid growth, % test/control for NS(=O)(=O)OCC1CC(n2ccc3c(NC4CCc5ccccc54)ncnc32)CC1O (stereo unspecified) + Cc1cncc(-c2nc(NCCc3c[nH]c4ccccc34)c3ncn(C(C)C)c3n2)c1
Response given: 42.9

Challenge: Enter reported viability, T/C observed with 324938-238-R-J1-PDC complex spheroid growth, % test/control for COc1cc(Nc2ncc3c(n2)-c2ccc(Cl)cc2C(c2c(F)cccc2OC)=NC3)ccc1C(=O)O + Cc1ccccc1N=Nc1ccc(NC(=O)c2ccnn2C)c(C)c1
Response given: 31.6

Challenge: Enter reported viability, T/C observed with 324938-238-R-J1-PDC complex spheroid growth, % test/control for COc1cc(Nc2ncc3c(n2)-c2ccc(Cl)cc2C(c2c(F)cccc2OC)=NC3)ccc1C(=O)O + Cc1cncc(-c2nc(NCCc3c[nH]c4ccccc34)c3ncn(C(C)C)c3n2)c1
Response given: 127
